B1: Osa-1-4 twister ribozyme (parent)
chain: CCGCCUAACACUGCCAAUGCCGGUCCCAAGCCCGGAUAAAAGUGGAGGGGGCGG

# Variants of: B1
# assay.comment: self-cleavage, relative activity (ratio to wild type); higher = more cleavage; co-transcriptional

- sequence.string: "CCGCCUAACACUGCCAAUGCCGGUCCCAAGCCCGGAUAAAAGGGGAGGGCGCGG [G50C U43G]"
  self-cleavage: 0.36
- sequence.string: "CCGCCUAACACUGCCAAUGCCGGUCCCAAGCGCGGAUAAAAGUGGAGGCGGCGG [C32G G49C]"
  self-cleavage: 0.04
- sequence.string: "CCGCCUAACACUGCCAAUGCCGGUCCCAAGCCCGAAUACAAGUGGAGGGGGCGG [A39C G35A]"
  self-cleavage: 0.78
- sequence.string: "CCGCCUAACACUGCCAAUGCCGGUUCCAAGCCAGGAUAAAAGUGGAGGGGGCGG [C25U C33A]"
  self-cleavage: 0.06
- sequence.string: "CCGCCUAACACUGCCAAUGCCGGUCCCAAGUCCGCAUAAAAGUGGAGGGGGCGG [C31U G35C]"
  self-cleavage: 0.14
- sequence.string: "CCGCCUAACACUGCCAAUCCCGGUCCCAAGCCCGGAUAAAAGUGAAGGGGGCGG [G19C G45A]"
  self-cleavage: 0.03
- sequence.string: "CCGCCUAACACUGCCAAUGCUGGUCCCAAGCCCGGAUAAAAGUGGAGGGGGAGG [C21U C52A]"
  self-cleavage: 0.97
- sequence.string: "CCGCCUAACACUGCCAAUGCCGGUCGCAAGCCCGGAUAAAAGUGCAGGGGGCGG [C26G G45C]"
  self-cleavage: 0.03
- sequence.string: "CCGCCUAACACUGCCAAUGCCGGUCCCAAGCCCGCAUAAAAGUGGAGGGGUCGG [G35C G51U]"
  self-cleavage: 0.06
- sequence.string: "CCGCCUAACAGUGCCAAUGCCGGUCCCAAGCCCGGAUAAAGGUGGAGGGGGCGG [A41G C11G]"
  self-cleavage: 0.18
- sequence.string: "CCGCCUAACACUGCCAAUGCCGGUCCCAAGCCCAGACAAAAGUGGAGGGGGCGG [G34A U37C]"
  self-cleavage: 0.89
- sequence.string: "CCGCCUAACACUGACAAUGCCGCUCCCAAGCCCGGAUAAAAGUGGAGGGGGCGG [C14A G23C]"
  self-cleavage: 0.02
- sequence.string: "CCGCCUAACAAUGCCAAUGCCGGUCCCAAGCCCGGAUUAAAGUGGAGGGGGCGG [A38U C11A]"
  self-cleavage: 0.78
- sequence.string: "CCGCCUAACACUGCCUAUGCCGGUCCCAAGCCCGGAUAAAAGCGGAGGGGGCGG [A16U U43C]"
  self-cleavage: 0.36

Sourced from the RNAGym collection of RNA variant scans (doi:10.1002/anie.201605470)
